MEASURED_PROPERTY: AC50

# input Enter reported AC50 observed with Cytochrome P450 3A4 (Homo sapiens, UniProt P08684) for CCCCCCCC/C=C\CCCCCCCC(N)=O [OLEAMIDE]
# Sequence (P08684 whole entry): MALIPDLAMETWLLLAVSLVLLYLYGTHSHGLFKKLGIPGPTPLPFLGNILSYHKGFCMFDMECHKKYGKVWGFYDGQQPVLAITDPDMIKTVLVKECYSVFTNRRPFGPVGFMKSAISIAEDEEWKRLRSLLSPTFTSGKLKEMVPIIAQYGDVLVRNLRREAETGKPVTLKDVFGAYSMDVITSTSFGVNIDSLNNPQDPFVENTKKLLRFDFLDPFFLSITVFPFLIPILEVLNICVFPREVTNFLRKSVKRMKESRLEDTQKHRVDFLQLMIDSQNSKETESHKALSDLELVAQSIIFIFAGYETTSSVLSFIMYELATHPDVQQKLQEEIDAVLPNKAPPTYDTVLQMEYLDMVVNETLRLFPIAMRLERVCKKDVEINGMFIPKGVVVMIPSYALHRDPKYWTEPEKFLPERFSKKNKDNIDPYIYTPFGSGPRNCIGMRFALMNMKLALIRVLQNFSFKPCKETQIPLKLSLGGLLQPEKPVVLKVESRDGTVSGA
# output 50.1 µM (inconclusive)

# input Enter reported AC50 observed with Cytochrome P450 3A4 (Homo sapiens, UniProt P08684) for COCCn1c(=O)c(-c2ccc(Cl)cc2)nc2cnc(Oc3ccccc3)nc21
# output 25.1 µM (inconclusive)

# input Enter reported AC50 observed with Cytochrome P450 3A4 (Homo sapiens, UniProt P08684) for CCN1/C(=C/c2ccc3cccc(C)c3[n+]2CC)Sc2ccccc21
# output 8.91 µM (inconclusive)

# input Enter reported AC50 observed with Cytochrome P450 3A4 (Homo sapiens, UniProt P08684) for COc1ccc(N2CCN(C(=O)CSc3nnc4c5cc(C)ccc5n(C)c4n3)CC2)cc1
# output 1.12 µM (inconclusive)

# input Enter reported AC50 observed with Cytochrome P450 3A4 (Homo sapiens, UniProt P08684) for CCCn1nc(NC(=O)CC(C)C)c2cc3ccccc3nc21
# output 3.16 µM (inconclusive)

# input Enter reported AC50 observed with Cytochrome P450 3A4 (Homo sapiens, UniProt P08684) for CCc1ccc(-c2cc(C(F)(F)F)n3nc(C(=O)Nc4cnn(Cc5ccccc5C)c4)cc3n2)s1
# output 3.16 µM (inconclusive)

# input Enter reported AC50 observed with Cytochrome P450 3A4 (Homo sapiens, UniProt P08684) for Cc1nnc(NC(=O)c2oc3c(ccc4ccccc43)c2C)s1
# output 12.6 µM (inconclusive)

# input Enter reported AC50 observed with Cytochrome P450 3A4 (Homo sapiens, UniProt P08684) for CCCSc1nnc2n(N)c(=O)c3ccccc3n12
# output 28.2 µM (inconclusive)

----------
# SYSTEM_TESTED: Cytochrome P450 2C19 (Homo sapiens)
# Sequence (P33261 whole entry): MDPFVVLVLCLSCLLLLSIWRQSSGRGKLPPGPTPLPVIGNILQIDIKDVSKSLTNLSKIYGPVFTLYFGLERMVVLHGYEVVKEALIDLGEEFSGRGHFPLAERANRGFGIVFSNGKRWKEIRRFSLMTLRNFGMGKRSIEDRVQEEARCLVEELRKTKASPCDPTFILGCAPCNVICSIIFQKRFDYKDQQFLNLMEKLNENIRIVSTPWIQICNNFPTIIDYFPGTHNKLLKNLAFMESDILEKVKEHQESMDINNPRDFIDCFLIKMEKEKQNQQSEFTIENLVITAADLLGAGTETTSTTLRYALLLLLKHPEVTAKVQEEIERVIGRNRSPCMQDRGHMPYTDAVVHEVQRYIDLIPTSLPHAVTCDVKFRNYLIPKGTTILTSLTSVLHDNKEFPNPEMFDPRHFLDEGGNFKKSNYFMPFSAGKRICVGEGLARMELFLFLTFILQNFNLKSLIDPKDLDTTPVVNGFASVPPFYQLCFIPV
# ASSAY_EXPLANATION: Cytochrome panel assay with activity outcomes. Panel member name: p450-cyp2c19 Compounds with AC50 equal or less than 10 uM are considered active
# Format: functional
MEASURED_PROPERTY: AC50

N=C(N)Nc1ccc(Cl)cc1: inconclusive
O=C(O)C1C2C=CC3(CN(Cc4ccccn4)C(=O)C13)O2 (stereo not drawn): inconclusive
CCN=C(S)N1CCC(NC(=O)C2CCCCC2)CC1: inconclusive

----------
# ASSAY_EXPLANATION: cells
# Format: functional, cell-based
Exercise: for every item that follows, state its recorded EC50.

# input EC50 lookup needed for CCCn1c2ccccc2c2cnn(CC(=O)NC3CCCC(C)C3C)c(=O)c21 (stereo not given) , thanks.
# output > 350 µM (not active)

# input EC50 lookup needed for O=C(CSc1nnc(-c2ccco2)n1Cc1ccco1)NCc1ccccc1 , thanks.
# output > 350 µM (not active)

# input EC50 lookup needed for CCOC(=O)N1CCN(c2ccc(Cl)c(Cl)c2)CC1 , thanks.
# output > 350 µM (not active)

# input EC50 lookup needed for COc1ccc(O)c(/C=N/NC(=O)c2ccc(OCc3cccc(Br)c3)cc2)c1 , thanks.
# output > 350 µM (not active)

# input EC50 lookup needed for O=C(N/N=C/c1cc2cc3c(cc2nc1Cl)OCO3)c1ccncc1 , thanks.
# output > 350 µM (not active)

----------
# SYSTEM_TESTED: Kappa-type opioid receptor (Homo sapiens)
# Sequence (P41145 whole entry): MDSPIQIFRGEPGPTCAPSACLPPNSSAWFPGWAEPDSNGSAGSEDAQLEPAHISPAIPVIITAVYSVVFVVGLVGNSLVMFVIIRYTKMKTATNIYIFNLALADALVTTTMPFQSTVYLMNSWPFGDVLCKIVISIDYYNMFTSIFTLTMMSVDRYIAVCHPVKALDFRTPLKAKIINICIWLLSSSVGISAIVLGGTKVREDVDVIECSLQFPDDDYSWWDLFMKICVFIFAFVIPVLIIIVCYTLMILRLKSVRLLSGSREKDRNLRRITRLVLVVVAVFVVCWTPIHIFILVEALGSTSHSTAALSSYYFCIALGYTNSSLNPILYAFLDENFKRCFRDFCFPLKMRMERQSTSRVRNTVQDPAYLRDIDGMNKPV
# Assay type: functional
pIC50: −log10 of the molar value.
MEASURED_PROPERTY: pIC50

# input pIC50 lookup needed for CCc1nc2sc3c(Cl)ncnc3c2c2c1CCCC2 , thanks.
# output < 4.49
